Run Description: NCI Yeast Anticancer Drug Screen. Data for the rad18 strain (AID 177)
Measurement Parameters: S. cerevisiae rad18 mutant growth inhibition; at 3.7 µM; stronger effect = higher value
Compounds without any hit were thinned out: in the full panel of roughly 79,000, 15% have a hit.
Property: growth inhibition; scope: individual molecules
Field: numeric (%). Do not append units.

The cases that follow already have their growth inhibition on record.
molecule=CCOC(=O)c1cc([N+](=O)[O-])cc([N+](=O)[O-])c1Sc1ncnc2nc[nH]c12 unit_spec=% data_value=-7
molecule=COC(=O)CCNc1c2ccccc2nc2cccc([N+](=O)[O-])c12 unit_spec=% data_value=97

Query: Report growth inhibition, nothing else, for this molecule: CC(C(=O)N1C(=O)N(C(=O)[C@H](C)C(O)c2ccccc2)[C@H](c2ccccc2)[C@H]1c1ccccc1)[C@@H](O)c1ccccc1 (some centres undefined)
Reply: 6

Query: Check the records and state growth inhibition for [N-]=N[N+]#I1OC(C(F)(F)F)(C(F)(F)F)c2ccccc21
Reply: 89

Query: Assign growth inhibition to the following record: O=C(O)C1OC1(c1cccc(Cl)c1)c1ccccc1Cl (centres undefined)
Reply: -16

Query: Specify reported growth inhibition for the molecule shown: CC(C)OC(=O)Oc1ccccc1OC(=O)OC(C)C
Reply: 1

Query: Specify reported growth inhibition for the molecule shown: COC(=O)c1ccc(NCC2=CC(=O)C=CC2=O)cc1O
Reply: 32

Query: Kindly indicate its recorded growth inhibition. Item: CCN(CC)[P+](c1ccccc1O)(N(CC)CC)N(CC)CC
Reply: 37

###

Run Description: NCI Yeast Anticancer Drug Screen. Data for the rad50EPP+ strain (AID 151);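 further: 0% = growth of vehicle-treated control cultures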
Measurement Parameters: S. cerevisiae rad50 mutant strain, at 11.0 µM, stronger effect = higher value
This is part of a sample that, as a whole, favours compounds with a hit. Of some 79,000 tested, about 15% had one in any assay.
# cutoff 10% applies to growth inhibition; >= gives Fulfilled, < gives Not fulfilled

molecule=O=CNc1ccc2c(c1)C(=O)c1ccccc1-2 qualitative_label=Fulfilled

Proceed to the following item.
Query: Kindly determine if growth inhibition recorded for C/C(=N/NC(=S)N1CCCCCC1)c1cccc(/C(C)=N\NC(=S)N2CCCCCC2)n1 is above or exactly 10%.
Reply: Not fulfilled

###

Run Description: NCI Yeast Anticancer Drug Screen. Data for the rad50EPP+ strain (AID 151);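 further: 0% = growth of vehicle-treated control cultures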
Measurement Parameters: S. cerevisiae rad50 mutant strain, at 33.0 µM
Compounds without any hit were thinned out: in the full panel of roughly 79,000, 15% have a hit. The source made the active and inactive calls. Rule as the data show it: active = growth inhibition above about 70%; inactive = the rest.
Response enum: active, inactive

compound="CN1CCc2ccccc2C1Cc1ccccc1NC(=O)c1sc2ccccc2c1Cl (centres undefined)" qualitative_label=inactive

Query: # lookup: test call for c1ccc(-c2ccnc3c2ccc2c(-c4ccccc4)ccnc23)cc1
Reply: active

Query: Hi, sorry to bother you, what did the test record for CN(CCc1ccccn1)c1ccc2c(c1)Cc1ccccc1-2 ?
Reply: active

Query: Lab log entry: CCc1ccc(NS(=O)(=O)c2ccccc2)c([N+](=O)[O-])c1 — outcome as called in the assay?
Reply: inactive

###

Run Description: NCI Yeast Anticancer Drug Screen. Data for the mec2-1 strain (AID 157)
Measurement Parameters: S. cerevisiae mec2-1 strain, at 1.2 µM, stronger effect = higher value
The panel holds about 79,000 compounds, 15% with a hit somewhere; the sample as a whole holds those more often.
Measured Metric: growth inhibition (%)
Entry rule: numbers only, all in %.

compound=CCCCc1cc(O)ccc1O measured_metric="growth inhibition" data_value=4

Query: Give the reported value of growth inhibition for this record: Nc1nc(-c2cccnc2)cc(-c2cc(-c3cccnc3)nc(N)n2)n1
Reply: 0

Query: Supply recorded growth inhibition for N/C(=N\OC(=O)NC(Cl)=C(Cl)Cl)c1cc(C(F)(F)F)cc(C(F)(F)F)c1 here.
Reply: -33
